The values you see were collected from PubChem BioAssay.

test-name: blood-stage malaria parasite viability loss – strain 3D7, DAPI fluorescence, 100 nL, primary screen (AID 1184);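 further: parasites grown inside human red blood cells in medium with human serum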
conditions-used: P. falciparum 3D7 growth, 3 d, higher = more signal
// values below are reported z-score

# compound, z-score
data = [
    ("C#C[C@H]1Oc2ccccc2S(=O)(=O)N2CCC[C@@H]12", 0.562),
    ("CC(C)NC(=O)[C@@]1(c2ccc([N+](=O)[O-])cc2)CC(=O)N(C(C)C)[C@@H]1c1ccc(CO)cc1", 0.468),
    ("O=C(N1CCCCC1)[C@]1(CCS(=O)(=O)c2ccccc2)N=C(c2ccc(OCCCO)cc2)O[C@@H]1c1ccccc1", -2.79),
    ("CC1(C)C(=O)C(c2ccccc2)=C2CN3C(=O)N(CCc4ccccc4)C(=O)C3(Cc3ccccc3)C=C21 (stereo not given)", -1.34),
    ("CN1C(=O)C2C=CC(C(O)c3ccccc3)N(NC(=O)OC(C)(C)C)C2C1=O (stereo not given)", -0.305),
]

---

Below is a list of entries, each paired with its recorded composite z-score value.
study-system: Torsin-1A (Homo sapiens) (UniProt O14656)
Sequence (O14656 whole entry, looked up): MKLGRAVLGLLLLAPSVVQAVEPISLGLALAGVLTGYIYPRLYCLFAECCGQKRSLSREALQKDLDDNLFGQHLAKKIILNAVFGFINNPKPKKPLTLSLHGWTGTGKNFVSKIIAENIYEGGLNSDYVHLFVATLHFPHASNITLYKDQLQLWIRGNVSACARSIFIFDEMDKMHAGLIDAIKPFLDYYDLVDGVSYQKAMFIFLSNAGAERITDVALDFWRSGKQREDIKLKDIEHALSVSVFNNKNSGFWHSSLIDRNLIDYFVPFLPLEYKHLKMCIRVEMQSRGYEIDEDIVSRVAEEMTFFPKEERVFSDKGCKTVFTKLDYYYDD
test-name: TOR1A wild-type binding on microarray – cell lysate, small-molecule microarray, lysate, 635/667 nm, primary screen (AID 1149)
conditions-used: COS7 hTOR1A-WT lysate, 635 nm fluorescence, higher = more signal

# compound, composite z-score
measured = [
    ("C=CCC(OC(C)=O)[C@@H]1[C@@H](N(Cc2ccc(-c3ccccc3)cc2)C(=O)c2ccc(C)cc2)c2cc(OCCCO)ccc2N1C(=O)Cc1ccc(OC)cc1 (stereo partly specified)", -0.691),
    ("COc1ccc(C(=O)Nc2cccc(CN3C(=O)[C@@]4(O[C@@H](CCn5cc([C@H](O)c6ccccc6)nn5)[C@H]([Si](C)(C)c5ccc(OC)cc5)[C@H]4C)c4ccccc43)c2)cc1", -0.12),
    ("O=C1O[C@@H](c2ccccc2)[C@@H](c2ccccc2)N2[C@@H](c3ccc(O)cc3)[C@]3(C(=O)Nc4ccccc43)[C@@H](C(=O)NC[C@H](O)c3ccccc3)[C@H]12", -1),
    ("C=CCOC(=O)[C@H]1[C@@H]2C(=O)O[C@@H](c3ccccc3)[C@@H](c3ccccc3)N2[C@@H](c2ccc(OCCOC(=O)[C@H]3C[C@H]4C(=O)N[C@@H](CCCC[N+](C)(C)C)C(=O)N4[C@H]3c3ccc(O)cc3)cc2)[C@]12C(=O)Nc1ccccc12", 0.475),
    ("CCCCCCCCCCC(O)C1C=CC2C(=O)N(c3ccccc3)C(=O)C2N1Nc1ccc([N+](=O)[O-])cc1 (stereo unspecified)", 0.0415),
    ("CCCC[C@H]1OB(O)C[C@H]2C1=C(C)Cn1c(=O)n(-c3ccccc3)c(=O)n12", 0.363),
]

---

test-name: optical density shifts of acrAB sulA E. coli – strain DRC41, OD650, 48 h, E. coli filamentation inducer project, primary screen (AID 1152);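 further: E. coli MC1000 strain DRC41 lacking acrAB efflux pump and sulA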
conditions-used: higher = more signal, called active from +8 up or from −8 down

# molecule, z-score
measured = [
    ("CC(C)CNC(=O)[C@@]1(C)c2ccccc2C(=O)N(C(C)C)[C@H]1c1ccc(CO)cc1", -0.144),
    ("C=C(CCCC)/C(=C/C[C@@H](OC(=O)c1ccncc1)c1ccc(CO)o1)c1cc(C(=O)OC)ccc1OC", 0.722),
    ("O=C1C2C=CC(C(O)c3ccc(Br)cc3)N(n3cnnc3)C2C(=O)N1Cc1ccccc1 (configuration not stated)", -2.21),
    ("NC(=O)[C@@]1(CCS(=O)(=O)c2ccccc2)N=C(c2ccc(OCCCO)cc2)O[C@H]1c1ccccc1", 1.24),
    ("C=CCC(OC(C)=O)[C@@H]1[C@@H](N(Cc2cc3ccccc3o2)C(=O)c2cccc3ccccc23)c2cc(OCCCO)ccc2N1C(=O)Cc1ccc(OC)cc1 (some centres not stated)", -0.901),
    ("CCCC[C@@H]1C[C@H]1[C@@H](NC(=O)c1ccccc1)c1ccc(-c2ccccc2)cc1", -1.66),
    ("O=C1O[C@H](c2ccccc2)[C@H](c2ccccc2)N2[C@H]1[C@@H](C(=O)NC[C@H](O)c1ccccc1)[C@]1(C(=O)Nc3ccc(C#CC4(O)CCCCCC4)cc31)[C@H]2c1ccccc1OCCO", 0.0511),
]

---

study-system: Calmodulin-1 (Homo sapiens)
test-name: small molecules binding calmodulin-1 with EGTA – biochemical, small-molecule microarray, Cy5-labelled CALM1, profiling panel (AID 1111);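 further: labelled calmodulin applied in Tris saline Tween buffer holding calcium plus EGTA and DTT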
conditions-used: Cy5-CALM1 binding fluorescence, higher = more signal
# composite z-score >= 0.4 gives criterion met, anything below gives criterion not met

# compound, discrete-label
rows = [
    ("O=S(=O)(NCCCO)c1ccc(Br)cc1", "criterion met"),
    ("Cc1ccc(S[C@]2(C(=O)NCCN3CCOCC3)CC(=O)N(C3CCCCC3)[C@@H]2c2ccc(CO)cc2)cc1", "criterion met"),
    ("COc1ccc([Si](C)(C)[C@@H]2[C@@H](CCO)O[C@]3(C(=O)N(Cc4ccc(N5C(=O)c6cccc7cccc5c67)cc4)c4ccccc43)[C@H]2C)cc1", "criterion met"),
    ("CN1C(=O)C2C=CC(C(O)C3=C[C@H]4C[C@@H](C3)C4(C)C)N(Nc3ccc([N+](=O)[O-])cc3[N+](=O)[O-])C2C1=O (stereo partly drawn)", "criterion met"),
    ("Oc1ccc2cc[n+](Cc3cccc(OC(F)(F)F)c3)cc2c1", "criterion not met"),
    ("C=CCN1Cc2ccccc2C[C@]2(N=C(c3ccc(OCCCO)cc3)O[C@@H]2c2ccccc2)C1=O", "criterion not met"),
    ("COC(=O)[C@@]1(Cc2ccc(OC)cc2)[C@H]2c3cc(C(=O)N4CCCC4)n(CCc4ccccn4)c3C[C@H]2CN1C(=O)c1ccccc1", "criterion met"),
    ("COCCCNC(=O)[C@@]1(C)c2ccccc2C(=O)N(Cc2ccccc2)[C@H]1c1ccc(CO)cc1", "criterion not met"),
]

---

study-system: Streptavidin (Streptomyces avidinii)
test-name: compounds binding control protein streptavidin – biophysical, small-molecule microarray, 635/667 nm fluorescence, artefact control for SMM compound annotation, primary screen (AID 1147);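 further: signal reflects streptavidin binding to arrayed compounds as a control protein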
conditions-used: higher = more signal
Could you label it y if measured composite z-score is 0.1 or higher, and n otherwise?

# molecule, study-system, discrete-label
measured = [
    ("CN1C(=O)C2C=CC(C(O)c3ccccc3)N(NC(=O)OC(C)(C)C)C2C1=O (stereo not drawn)", "Streptavidin (Streptomyces avidinii)", "y"),
    ("COc1ccc(CCNC(=O)[C@@]2(C)c3ccccc3C(=O)N(Cc3ccccc3)[C@H]2c2ccc(CO)cc2)cc1", "Streptavidin (Streptomyces avidinii)", "y"),
    ("CN1C(=O)C2C=CC(C(O)c3ccc(Br)cc3)N(Nc3ccccc3)C2C1=O (stereo not drawn)", "Streptavidin (Streptomyces avidinii)", "n"),
    ("C[C@H]1C2[C@H](Cc3ccccc3)NC(=O)[C@]23C(=O)N[C@H](Cc2ccccc2)C(=O)N[C@H](Cc2ccccc2)C(=O)NC/C=C/CCC/C=C/C3[C@@H]2O[C@]12C (stereo partly drawn)", "Streptavidin (Streptomyces avidinii)", "n"),
    ("NC(=O)NCC#Cc1ccc2c(c1)[C@]1(C(=O)N2)[C@H](c2ccc(O)cc2)N2[C@H](c3ccccc3)[C@H](c3ccccc3)OC(=O)[C@H]2[C@@H]1C(=O)N1CCN(c2ncccn2)CC1", "Streptavidin (Streptomyces avidinii)", "n"),
    ("O=[N+]([O-])c1ccc(C[n+]2ccc(CCCO)cc2)o1", "Streptavidin (Streptomyces avidinii)", "y"),
    ("Cc1cccc(/C=C/C=O)c1", "Streptavidin (Streptomyces avidinii)", "y"),
    ("C[N+](C)(C)CCCC[C@@H]1NC(=O)[C@@H]2C[C@H](C(=O)NCCCCCCNC(=O)CS)[C@H](c3cccc(OCCO)c3)N2C1=O", "Streptavidin (Streptomyces avidinii)", "n"),
]

---

study-system: Fibroblast growth factor 10 (Homo sapiens) (UniProt O15520)
Sequence (O15520 whole entry, looked up): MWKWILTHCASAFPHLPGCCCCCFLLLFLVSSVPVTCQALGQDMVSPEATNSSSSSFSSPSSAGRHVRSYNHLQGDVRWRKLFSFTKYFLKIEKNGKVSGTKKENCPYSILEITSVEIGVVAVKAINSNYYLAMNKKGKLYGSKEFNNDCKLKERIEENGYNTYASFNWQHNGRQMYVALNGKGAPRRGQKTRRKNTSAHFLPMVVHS
test-name: compounds binding fibroblast growth factor 10 – biochemical, small-molecule microarray, 635 nm fluorescence, primary screen (AID 1102)
conditions-used: FGF10 binding, fluorescence 635 nm, higher = more signal
readout-label: composite z-score

# molecule, recorded-measurement
records = [
    ("Cc1ccc([C@H]2C(C(=O)O)=C[C@@H](C(C)C)N2S(=O)(=O)c2ccc(C)cc2)cc1", 0.265),
    ("COCCOC(=O)N1C(=O)[C@@]2(c3cc(C#CCC(C(=O)OC)C(=O)OC)ccc31)[C@H](c1ccc(OCCO)cc1)N1[C@H](c3ccccc3)[C@H](c3ccccc3)OC(=O)[C@H]1[C@@H]2C(=O)NC[C@H](O)c1ccccc1", 1.5),
    ("C=CCC(OC(C)=O)[C@@H]1[C@@H](N(Cc2cc3ccccc3o2)C(=O)c2cccc3ccccc23)c2cc(OCCCO)ccc2N1C(=O)Cc1ccc(OC)cc1 (stereo partly specified)", 0.568),
    ("CC(C)C(O)C1C=CC2C(=O)N(C)C(=O)C2N1N1CCCCC1 (stereo unspecified)", 0.709),
    ("O=C1O[C@@H](c2ccccc2)[C@@H](c2ccccc2)N2[C@@H](c3ccc(O)cc3)[C@]3(C(=O)Nc4ccc(C#CCCO)cc43)[C@@H](C(=O)N3CCCCCCC3)[C@H]12", 0.837),
    ("CO[C@H]1O[C@H](CO)[C@@H](OC(=O)Nc2cccc(F)c2)[C@H](OC(=O)Nc2ccccc2-c2ccccc2)[C@@H]1OC(=O)Nc1ccccc1-c1ccccc1", 1.17),
    ("COC(=O)[C@@]1(Cc2ccc(OC)cc2)[C@H]2c3cc(C(=O)N(C)C)n(CCSCCO)c3C[C@H]2CN1C(=O)c1ccccc1", 0.448),
    ("CCCNC(=O)[C@@]1(c2ccc([N+](=O)[O-])cc2)CC(=O)N(CC23CC4CC(CC(C4)C2)C3)[C@@H]1c1ccc(CO)cc1I", 0.193),
    ("CCCC[C@@H]1C[C@H]1[C@@H](NC(=O)c1ccccc1)c1ccccc1", -0.232),
    ("O=C(CS)NCCCCCCNC(=O)[C@H]1C[C@H]2C(=O)N3CCC[C@H]3C(=O)N2[C@H]1c1ccc(O)cc1", 0.732),
    ("C[C@]1(C(=O)NCC(F)(F)F)c2ccccc2C(=O)N(Cc2cc(F)cc(C(F)(F)F)c2)[C@H]1c1ccc(CO)cc1", 0.257),
    ("C=C(C(=O)CC[C@H](OC(=O)c1cccnc1)c1ccccc1OCCO)C(C)C", 1.56),
    ("COc1ccc(C(O)C2C=CC3C(=O)N(c4ccccc4)C(=O)C3N2Nc2ccccc2)c2ccccc12 (stereo unspecified)", -0.0394),
    ("Oc1ccc2cc[n+](Cc3cccc(OC(F)(F)F)c3)cc2c1", 0.837),
    ("[N-]=[N+]=Nc1ccccc1[C@@H]1OC(c2ccc(OCCCO)cc2)=N[C@]1(CCS(=O)(=O)c1ccccc1)C(=O)N1CCCCC1", 1.05),
    ("[N-]=[N+]=NCc1ccccc1[C@H]1OC(c2ccc(OCCCO)cc2)=N[C@@]1(Cc1ccccc1)C(=O)O", 0.621),
    ("CN(C)CCCC[C@@H]1NC(=O)[C@@H]2C[C@H](C(=O)NCCCCCN)[C@H](c3ccc(O)cc3)N2C1=O", -0.008),
    ("CC(C)N1C(=O)c2ccccc2[C@](C)(C(=O)NCCCN(C)C)[C@@H]1c1ccc(CO)cc1", -0.543),
    ("C=C(C(=O)CC[C@@H](OC(=O)c1cccnc1)c1ccc(OCCO)cc1)C(C)C", 0.922),
    ("[N-]=[N+]=Nc1ccccc1[C@@H]1OC(c2ccc(OCCCO)cc2)=N[C@]1(CCS(=O)(=O)c1ccccc1)C(=O)O", 1.11),
    ("O=C1OCCC/C=C\\[C@H]2OC34C=CCN(Cn5nnc6ccccc65)C(=O)[C@H]3N(CCCO)C(=O)[C@@H]4C12 (stereo partly specified)", -1.34),
    ("C=C(C(=O)CC[C@@H](OC(=O)c1cccnc1)c1ccc(CO)o1)C(C)C", 1.16),
    ("O=C1OCCC=C[C@H]2OC34C=CCN(CCN5CCOCC5)C(=O)[C@H]3N(CCO)C(=O)[C@@H]4C12 (stereo partly specified)", 0.217),
    ("COc1ccc([Si](C)(C)[C@@H]2[C@@H](CCO)O[C@]3(C(=O)N(Cc4cccc(N5CCCCC5=O)c4)c4ccccc43)[C@H]2C)cc1", 1.04),
    ("COc1ccc(CCNC(=O)[C@@]2(C)c3ccccc3C(=O)N(Cc3ccccc3)[C@H]2c2ccc(CO)cc2)cc1", 1.26),
    ("C=CCN1C(=O)[C@@]2(O[C@@H](CCO)[C@H]([Si](C)(C)c3ccc(OC)cc3)[C@H]2C)c2cc(NC(C)=O)ccc21", 1.08),
    ("C=C(CCCC)/C(=C/C[C@H](OC(C)=O)c1ccc(CO)o1)c1cc(C(=O)OC)ccc1OC", 1.25),
    ("CCCC[C@@H]1C[C@H]1[C@@H](NC(=O)c1ccccc1)c1ccc(-c2ccccc2)cc1", 0.0096),
    ("COc1ccc([Si](C)(C)[C@@H]2[C@@H](CC(=O)N3Cc4ccccc4C[C@H]3CO)O[C@]3(C(=O)N(Cc4cccc(N5C(=O)COc6ccccc65)c4)c4ccccc43)[C@H]2C)cc1", 0.904),
    ("CC(C)N1C(=O)c2ccccc2[C@](C)(C(=O)NC2CC2)[C@@H]1c1ccc(CO)cc1", 0.13),
    ("Cc1ccc(S[C@]2(C(=O)NCCN3CCOCC3)CC(=O)N(C3CCCCC3)[C@@H]2c2ccc(CO)cc2)cc1", -0.103),
]
